Reference source: patent US20140155415A1

# assay-system: GK-GKRP (glucokinase / glucokinase regulatory protein) (Homo sapiens)
# experiment-description: GKRP LC MS/MS Biochemical Assay (LCMS/MS)
# measurement-conditions: formation of 13C-glucose-6-phosphate from 13C-glucose by LC MS/MS, human His-hepatic GK, fructose-6-phosphate
experimental-endpoint: log10(EC50) (log10 of the value in nM)
Heads up: the numbers are on a log10 scale; they represent EC50 in nM.

Here are 10 compounds together with their reported answers.
                                   compound                              assay_system  experimental_endpoint  recorded_number
0  CSc1ccccc1[C@@H](NS(=O)(=O)c1ccc2c(c1)OCCCO2)c1cc2ccccc2s1 (single isomer, unassigned) [Example 41 Peak #2]  GK-GKRP (glucokinase / glucokinase regulatory protein) (Homo sapiens)            log10(EC50)             1.11
1  COc1ccc2sc(C(NS(=O)(=O)c3ccc4c(c3)OCCCO4)c3ccccc3)cc2c1 (racemic) [Example 58]  GK-GKRP (glucokinase / glucokinase regulatory protein) (Homo sapiens)            log10(EC50)             2.30
2  CCc1ccccc1[C@@H](NS(=O)(=O)c1ccc2c(c1)OCCCO2)c1cc2ccccc2o1 (single isomer, unassigned) [Example 6 Peak #2]  GK-GKRP (glucokinase / glucokinase regulatory protein) (Homo sapiens)            log10(EC50)             1.60
3  COc1ccccc1[C@H](NS(=O)(=O)c1ccc2c(c1)OCCCO2)c1cc2ccccc2s1 (single isomer, unassigned) [Example 40 Peak #1]  GK-GKRP (glucokinase / glucokinase regulatory protein) (Homo sapiens)            log10(EC50)             2.11
4  O=S(=O)(N[C@H](c1ccccn1)c1cc2ccccc2o1)c1ccc2c(c1)OCCCO2 (single isomer, unassigned) [Example 25 Peak #2]  GK-GKRP (glucokinase / glucokinase regulatory protein) (Homo sapiens)            log10(EC50)             2.46
5  C#Cc1ccccc1C(NS(=O)(=O)c1ccc2c(c1)OCCCO2)c1cc2ccccc2s1 (racemic) [Example 39]  GK-GKRP (glucokinase / glucokinase regulatory protein) (Homo sapiens)            log10(EC50)             1.57
6  CCc1ccccc1C(NS(=O)(=O)c1ccc2c(c1)OCCCO2)c1cc2ccccc2o1 (racemic) [Example 6]  GK-GKRP (glucokinase / glucokinase regulatory protein) (Homo sapiens)            log10(EC50)             1.83
7  CSc1ccccc1C(NS(=O)(=O)c1ccc2c(c1)OCCCO2)c1cc2ccccc2s1 (racemic) [Example 41]  GK-GKRP (glucokinase / glucokinase regulatory protein) (Homo sapiens)            log10(EC50)             1.43
8  O=S(=O)(NC(c1cc2ccccc2o1)c1ccccc1CO)c1ccc2c(c1)OCCCO2 (racemic) [Example 15]  GK-GKRP (glucokinase / glucokinase regulatory protein) (Homo sapiens)            log10(EC50)             3.20
9  COc1cccnc1C(NS(=O)(=O)c1ccc2c(c1)OCCCO2)c1cc2ccccc2s1 (racemic) [Example 43]  GK-GKRP (glucokinase / glucokinase regulatory protein) (Homo sapiens)            log10(EC50)             1.67

INPUT: Form field: log10(EC50) recorded for COc1ccccc1[C@H](NS(=O)(=O)c1ccc2c(c1)OCCCO2)c1cc2ccccc2o1 (single isomer, unassigned) [Example 17 Peak #1] with GK-GKRP (glucokinase / glucokinase regulatory protein) (Homo sapiens) (enter value)
OUTPUT: 3.79

INPUT: Form field: log10(EC50) recorded for Cc1ccccc1C(NS(=O)(=O)c1ccc2c(c1)OCCCO2)c1cc2ccccc2o1 (racemic) [Example 2] with GK-GKRP (glucokinase / glucokinase regulatory protein) (Homo sapiens) (enter value)
OUTPUT: 2.04

INPUT: Form field: log10(EC50) recorded for Nc1cccc(C(NS(=O)(=O)c2ccc3c(c2)OCCCO3)c2cc3ccccc3o2)c1 (racemic) [Example 14] with GK-GKRP (glucokinase / glucokinase regulatory protein) (Homo sapiens) (enter value)
OUTPUT: 3.20

INPUT: Form field: log10(EC50) recorded for O=S(=O)(N[C@H](c1ccccc1)c1cc2cccc(-c3ccccn3)c2s1)c1ccc2c(c1)OCCCO2 (single isomer, unassigned) [Example 71 Peak #2] with GK-GKRP (glucokinase / glucokinase regulatory protein) (Homo sapiens) (enter value)
OUTPUT: 2.08

INPUT: Form field: log10(EC50) recorded for CSc1ccccc1C(NS(=O)(=O)c1ccc2c(c1)OCCCO2)c1cc2cccnc2s1 (racemic) [Example 48] with GK-GKRP (glucokinase / glucokinase regulatory protein) (Homo sapiens) (enter value)
OUTPUT: 1.34

---

# assay-system: GK-GKRP (glucokinase / glucokinase regulatory protein) (Homo sapiens, UniProt Q14397)
# Sequence (Q14397 1-625): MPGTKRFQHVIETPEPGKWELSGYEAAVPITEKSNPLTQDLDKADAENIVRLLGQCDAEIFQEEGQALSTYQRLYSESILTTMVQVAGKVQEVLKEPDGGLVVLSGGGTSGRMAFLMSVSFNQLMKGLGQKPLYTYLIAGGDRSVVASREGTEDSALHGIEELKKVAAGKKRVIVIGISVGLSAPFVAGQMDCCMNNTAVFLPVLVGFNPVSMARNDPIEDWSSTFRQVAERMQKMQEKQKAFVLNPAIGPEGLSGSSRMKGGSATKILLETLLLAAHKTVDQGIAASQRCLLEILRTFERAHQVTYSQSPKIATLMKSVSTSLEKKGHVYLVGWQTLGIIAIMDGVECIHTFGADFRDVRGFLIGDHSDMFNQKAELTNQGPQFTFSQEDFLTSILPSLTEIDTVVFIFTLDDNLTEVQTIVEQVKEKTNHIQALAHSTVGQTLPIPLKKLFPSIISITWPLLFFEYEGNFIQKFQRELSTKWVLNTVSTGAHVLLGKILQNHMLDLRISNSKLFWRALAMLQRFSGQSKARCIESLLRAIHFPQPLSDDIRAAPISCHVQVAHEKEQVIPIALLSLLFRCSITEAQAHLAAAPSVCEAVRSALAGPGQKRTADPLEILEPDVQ
# experiment-description: GKRP LC MS/MS Biochemical Assay (LCMS/MS)
# measurement-conditions: formation of 13C-glucose-6-phosphate from 13C-glucose by LC MS/MS, human His-hepatic GK, fructose-6-phosphate
experimental-endpoint: pEC50
Worth noting: pEC50 values are minus log10 of concentrations stated in mol/L.

>>> print(df.to_string())
                                   molecule  experimental_endpoint  recorded_number
0  O=S(=O)(NC(c1cc2ccccc2o1)c1ccccc1CCO)c1ccc2c(c1)OCCCO2 (racemic)                  pEC50             5.49
1  CC(C)c1ccccc1C(NS(=O)(=O)c1ccc2c(c1)OCCCO2)c1cc2ccccc2o1 (racemic)                  pEC50             6.55
2  O=S(=O)(N[C@@H](c1ccccn1)c1cc2ccccc2o1)c1ccc2c(c1)OCCCO2 (single isomer, unassigned) [Example 25 Peak #1]                  pEC50             5.22

INPUT: Form field: pEC50 recorded for O=S(=O)(NC(c1cc2ccccc2o1)c1nccs1)c1ccc2c(c1)OCCCO2 (racemic) with GK-GKRP (glucokinase / glucokinase regulatory protein) (Homo sapiens, UniProt Q14397) (enter value)
OUTPUT: 5.55

INPUT: Form field: pEC50 recorded for CSc1ccccc1[C@@H](NS(=O)(=O)c1ccc2c(c1)OCCCO2)c1nc2cccnc2s1 (single isomer, unassigned) [Example 65 Peak #2] with GK-GKRP (glucokinase / glucokinase regulatory protein) (Homo sapiens, UniProt Q14397) (enter value)
OUTPUT: 7.82

---

# assay-system: GK-GKRP (interaction between glucokinase and glucokinase regulatory protein) (Homo sapiens)
# Construct: made in house; host or cells: GKRP: baculovirus system
# experiment-description: GK-GKRP Binding Assay (Binding), AlphaScreen
# measurement-conditions: avi-tagged GKRP, GK-fluorescein, AlphaScreen beads, 1 μM sorbitol-6-phosphate; read-out: GK-GKRP IC50 (Binding)
Reported IC50 values follow for various compounds
Write the value in nM as a bare number.

Here are 3 compounds together with their reported answers.
In [3]: df
Out[3]:
                                   compound  result_unit  recorded_number
0  O=S(=O)(NC(c1cc2ccccc2o1)c1ccccc1Br)c1ccc2c(c1)OCCCO2 (racemic)           nM              150
1  O=S(=O)(NC(c1cccc(O)c1)c1cc2ccccc2o1)c1ccc2c(c1)OCCCO2 (racemic)           nM             2500
2  O=S(=O)(N[C@H](c1nc2cccnc2s1)c1ccccc1Cl)c1ccc2c(c1)OCCCO2 (single isomer, unassigned) [Example 68 Peak #1]           nM             2000

INPUT: Please give the measured IC50 for this compound: Cc1ccccc1C(NS(=O)(=O)c1ccc2c(c1)OCCCO2)c1cc2ccccc2s1 (racemic)
OUTPUT: 290

INPUT: Please give the measured IC50 for this compound: Cc1cccc(C)c1C(NS(=O)(=O)c1ccc2c(c1)OCCCO2)c1cc2ccccc2o1 (racemic)
OUTPUT: 4100

INPUT: Please give the measured IC50 for this compound: COc1ccccc1C(NS(=O)(=O)c1ccc2c(c1)OCCCO2)c1nc2cccnc2s1 (racemic)
OUTPUT: 58

INPUT: Please give the measured IC50 for this compound: O=S(=O)(NC(c1ccccc1)c1nc2ccccc2s1)c1ccc2c(c1)OCCCO2 (racemic)
OUTPUT: 630
